// provenance: patent US5856359A

experiment: Aqueous solubility of L-thyroxine free acid in the presence of γ-cyclodextrin; type: physicochemical; conditions: water with γ-cyclodextrin, γ-cyclodextrin 20 g/100 ml, 25° C., 1-st run; read-out: solubility of thyroxine free acid
assay-metric: solubility (µg/mL)
Report the value in µg/mL with no unit label.

Q: Provide measured solubility value, entry: N[C@@H](Cc1cc(I)c(Oc2cc(I)c(O)c(I)c2)c(I)c1)C(=O)O [L-thyroxine free acid]
A: 1390

====

assay: Aqueous solubility of L-thyroxine sodium salt in the presence of cyclodextrins; format: physicochemical; conditions: water with randomly-methylated-β-cyclodextrin, randomly-methylated-β-cyclodextrin 12.0%
Where a name gives a salt, the structure may show the parent alone.
assay-metric: solubility
Respond with the figure and its unit, in that order.

Q: State its solubility for this molecule: N[C@@H](Cc1cc(I)c(Oc2cc(I)c(O)c(I)c2)c(I)c1)C(=O)O [L-thyroxine sodium salt, Levothyroxine sodium]
A: 13.3 mg/mL
